- method.notes: Oral bioavailability in dog
- Assay type: ADME, organism-based, Canis lupus familiaris
- condition.parameters: in vivo
endpoint.label: bioavailability (%)
Numeric answer only, unit % assumed.

input: Item Cl.NCC(=O)N1C[C@H](NC(=O)c2ccccc2)C[C@H]1C(=O)O has what recorded bioavailability?
output: 21

###

- method.notes: Clearance in rat at 0.5 mg/kg, iv
- Assay type: ADME, organism-based
- Design: dose 0.5 mg/kg, route intravenous
- condition.parameters: in vivo
endpoint.label: clearance
Write the figure, then the unit, nothing else.

input: Item COc1ccc(C(=O)NCC(=O)NCCCC[C@@H](N)CC(=O)O)cc1 has what recorded clearance?
output: 1.86 L/h/kg

input: Item Cl.NCC(=O)N1C[C@H](NC(=O)c2ccccc2)C[C@H]1C(=O)O has what recorded clearance?
output: 1.32 L/h/kg

###

- method.notes: Half life in rat at 5 mg/kg, po
- Type: ADME, organism-based
- Parameters: dose 5 mg/kg, route oral
- condition.parameters: in vivo
Some compounds, each annotated with its measured half-life.
Numeric answer only, unit h assumed.

>>> value_observed("NC(=O)C[C@H](NC(=O)CO)C(=O)N[C@@H](Cc1ccc(O)cc1)C(N)=O")
0.5

input: Item COc1ccc(C(=O)NCC(=O)NCCCC[C@@H](N)CC(=O)O)cc1 has what recorded half-life?
output: 1.5

input: Item Cl.NCC(=O)N1C[C@H](NC(=O)c2ccccc2)C[C@H]1C(=O)O has what recorded half-life?
output: 1.9

###

Some compounds, each annotated with its measured AUC.
- method.notes: AUC in rat at 5 mg/kg, po
- Assay type: ADME, organism-based, Plasma
- Design: dose 5 mg/kg, route oral
- condition.parameters: plasma
Write the figure, then the unit, nothing else.

>>> value_observed("COc1ccc(C(=O)NCC(=O)NCCCC[C@@H](N)CC(=O)O)cc1")
"71 ng·h/mL"

Now look at this entry.
input: Item Cl.NCC(=O)N1C[C@H](NC(=O)c2ccccc2)C[C@H]1C(=O)O has what recorded AUC?
output: 360 ng·h/mL

###

- method.notes: Tmax in rat at 5 mg/kg, po
- Format: ADME, organism-based
- Design: dose 5 mg/kg, route oral
- condition.parameters: in vivo
Some compounds, each annotated with its measured Tmax.
Numeric answer only, unit min assumed.

>>> value_observed("NC(=O)C[C@H](NC(=O)CO)C(=O)N[C@@H](Cc1ccc(O)cc1)C(N)=O")
24
>>> value_observed("Cl.NCC(=O)N1C[C@H](NC(=O)c2ccccc2)C[C@H]1C(=O)O")
30

Now look at this entry.
input: Item COc1ccc(C(=O)NCC(=O)NCCCC[C@@H](N)CC(=O)O)cc1 has what recorded Tmax?
output: 45
